pIC50 overview
biological target: Steroid 5-α-Reductase; assay: Steroid 5-α-reductase in vitro assay, rat prostate microsomes; type: biochemical; details: rat prostatic microsomes; 100 nM [3H]-testosterone, 1 mM NADPH, 60 minutes at 37° C.; read-out: ID50 Rat
pIC50: −log10 of the molar value.
value.kind: pIC50

                           smiles_structure        result
0  CCN(CC)C(=O)[C@H]1CC[C@H]2[C@@H]3CCNC4=CC(=O)CC[C@]4(C)[C@H]3CC[C@]12C  6.00 to 7.00
1  CC(C)CC(=O)[C@H]1CC[C@H]2[C@@H]3CNC4=C(Br)C(=O)CC[C@]4(C)[C@H]3CC[C@]12C  7.00 to 8.00
2  CCN(CC)C(=O)[C@H]1CC[C@H]2[C@@H]3CNC4=CC(=O)C=C[C@]4(C)[C@H]3CC[C@]12C  6.00 to 7.00
3  CC(C)(C)NC(=O)[C@H]1CC[C@H]2[C@@H]3CNC4=CC(=O)C=C[C@]4(C)[C@H]3CC[C@]12C  6.00 to 7.00
4  CC1=C2NC[C@H]3[C@@H]4CC[C@H](C(=O)NC56CC7CC(CC(C7)C5)C6)[C@@]4(C)CC[C@@H]3[C@@]2(C)CCC1=O        > 8.00
5  C[C@]12CC[C@H]3[C@@H](CNC4=CC(=O)CC[C@@]43C)[C@@H]1CC[C@@H]2C(=O)OC12CC3CC(CC(C3)C1)C2  7.00 to 8.00

----------
biological target: Steroid 5-α-Reductase; test: Steroid 5-α-reductase in vitro assay, rat prostate microsomes; details: rat prostatic microsomes; 100 nM [3H]-testosterone, 1 mM NADPH, 60 minutes at 37° C.; read-out: ID50 Rat
IC50 overview
value.kind: IC50

>>> print(df.to_string())
                           smiles_structure          result
0  CN1C[C@H]2[C@@H]3CC[C@H](C(=O)NC45CC6CC(CC(C6)C4)C5)[C@@]3(C)CC[C@@H]2[C@@]2(C)C=CC(=O)C=C12    10 to 100 nM
1  C[C@]12CC[C@H]3[C@@H](CNC4=CC(=O)CC[C@@]43C)[C@@H]1CC[C@@H]2C(=O)NC(c1ccccc1)c1ccccc1    10 to 100 nM
2  CCN(CC)C(=O)[C@H]1CC[C@H]2[C@@H]3CNC4=CC(=O)CC[C@]4(C)[C@H]3CC[C@]12C    10 to 100 nM
3  C[C@]12CC[C@H]3[C@@H](CNC4=C(Br)C(=O)CC[C@@]43C)[C@@H]1CC[C@@H]2C(=O)NC12CC3CC(CC(C3)C1)C2         < 10 nM
4  CC(C)N(C(=O)[C@H]1CC[C@H]2[C@@H]3CNC4=CC(=O)CC[C@]4(C)[C@H]3CC[C@]12C)C(C)C  100 to 1000 nM
